Data origin, for the record: patent US20240174750A1

Reported pEC50 is given for each of the following binders.
system tested: T1, CD47 on the surface of CD47+ cells (human, UniProt Q08722 19-323)
T1 construct: whole, on cells; also called CD47+ cell lines; CD47 on Raji cells, HCT-15 cells, human red blood cells (RBCs), human platelets
assay comment: flow cytometry on CD47+ cell lines; EC50 as grade, legend the 7th table, row 26
pEC50: −log10 of the molar value.

Previously resolved entries follow.
R.18B9 (antibody, human IgG1, kappa, V domains shown, Chimeric: rabbit variable domains, human IgG1 and human kappa constant regions; also called Chimeric antibody 18B9) VH: QSLEESGGDLVKPGASLTLTCKASGFSFNSGYMCWVRQAPGKGLEWIACIYAGSSGKTYYASWATGRFTISKTSSTTVTLQMTSLTVADTATYFCARDDGGTYYTDYLYLWGPGTLVTVSS VL: DVVMTQTPASVEAAVGGTVTIKCQASEGISSYLSWYQQKPGQPPKLLIYKASTLTSGVPSRFKGSGSGTDFTLTISDLESADAATYYCQCTYGSSGSSGYGAAFGGGTEVVVKR ... 8.30 to 9.30
R.1B11 (antibody, human IgG1, kappa, V domains shown, Chimeric: rabbit variable domains, human IgG1 and human kappa constant regions) VH: QSLEESGGRLVTPGTPLTLTCTASGFSLNSYHMSWVRQAPGEGLEWIGIIYADTGNADYASWTKGRFTISKASTTVELRITSPTSEDTATYFCARGPTNTYPTYFALWGPGTLVTVSS VL: AFELTQTPSSVEAAVGGTVTIKCQASQSITTYLAWYQQKPGQPPKLLIYGASNLESGVPSRFKGSRSGTEYTLTISDLESADAATYYCQSYYAISKSAFGGGTEVVVKR ... 9.30 to 10.00
M.95D4A11 (antibody, human IgG1, kappa, V domains shown, Chimeric: mouse variable domains, human IgG1 and human kappa constant regions) VH: QVQLQQPGAELVRPGASVKLSCKASGYTFTSYWMNWVKQRPEQGLEWIGSIDPYDSETHYNQKFKDKAILTVDKSSSTAYMQLSSLTSEDSAVYYCARGRGYAMDYWGQGTSVTVSS VL: DIQMTQSPASLSASVGETVTITCRASGNIHNYLAWYQQKQGKSPQLLVYNAKTLADGVPSRFSGSGSGTQYSLKINSLQPEDFGSYYCQHFWSTPPTFGGGTKLEIKR ... 9.30 to 10.00
R.1H3 (antibody, human IgG1, kappa, V domains shown, Chimeric: rabbit variable domains, human IgG1 and human kappa constant regions) VH: QSLEESGGDLVKPGASLTLTCTASGFSFSSGYYMCWVRQAPGKGLEWIACIYMRSGDTYLASWAKGQFTISKTSSTTVTLQMTSLTAADTATYFCGRGGTSYALNLWGQGTLVTVSS VL: DVVMTQTPASVSEPVGGTVTINCQASQSISNECSWYQQKPGQPPKLLIYRASTLESGVPSRFSGSGSGTEFTLTISDLESADAATYYCQSTYYGTTGNTFGGGTEVVVKR ... 9.30 to 10.00

Now look at this entry.
**Q:** Consider the binder M.1D15E11 (antibody, human IgG1, kappa, V domains shown, Chimeric: mouse variable domains, human IgG1 and human kappa constant regions; also called Chimeric antibody 1D15E11) VH: EVQLQQSGPELVKPGAPVKMSCKASGYTFTSYVMHWVKQKPGQGLEWIGYIDPYNDGTKYNEKFKGKATLTSDKSSSTAYMELSSLTSEDSAVYYCSRGGMARRSFDYWGQGTTLTVSS VL: DIQMTQSPASQSASLGESVTITCLASQTIGTWLTWYQQKPGKSPQLLIYAATTLADGVPSRFSGSGSGTKFSFKISSLQAEDFVSYYCQQLYSTPWTFGGGTKLEIKR and give its measured pEC50.
**A:** 9.30 to 10.00
